Tested on: CAKI-1
Assay: NCI tumour cell line growth inhibition, 48 h
The source made the active and inactive calls. No stated cut-off is given here; in the data, active = GI50 up to about 1.1 µM and inactive = higher.
Assignment: determine reported GI50 for the given compounds.

Inquiry: Form field: reported GI50 of `COc1cc2c(cc1C)NC(=O)/C2=C/c1cccnc1`
Reply text: 10.1 µM (inactive)

Inquiry: Form field: reported GI50 of `COC(=O)/C=C\Sc1ccn(/C=C\C(=O)OC)c(=S)n1`
Reply text: 16.6 µM (inactive)

Inquiry: Form field: reported GI50 of `Cc1ccc(/N=C2/C(c3ccccc3)=C(SC3=C(c4ccccc4)/C(=N/c4ccc(C)cc4)c4ccccc43)c3ccccc32)cc1`
Reply text: 15.2 µM (inactive)

Inquiry: Form field: reported GI50 of `CCOC(=O)c1nc2ccc(C(F)(F)F)cc2nc1NCc1ccc(F)cc1`
Reply text: 41.5 µM (inactive)

Inquiry: Form field: reported GI50 of N=C(N)/N=C(/C=C/c1ccccc1)CC1OC(=O)c2ccccc21 (stereo unspecified)
Reply text: > 100 µM (inactive)

Inquiry: Form field: reported GI50 of NC(=O)C(N)CC12CC3CC(CC(C3)C1)C2 (stereo unspecified)
Reply text: 27.3 µM (inactive)

Inquiry: Form field: reported GI50 of CC1(C)CC(=O)C2=C(C1)OC1(CC2c2ccc(Cl)cc2)CC(c2ccc(Cl)cc2)C2=C(CC(C)(C)CC2=O)O1 (stereo unspecified)
Reply text: 26.9 µM (inactive)

Inquiry: Form field: reported GI50 of [O-][S+](c1ccccc1)c1ccc(/N=N/O)nc1 (stereo unspecified)
Reply text: > 100 µM (inactive)

Inquiry: Form field: reported GI50 of `O=C1CCC(O)=C1O`
Reply text: > 100 µM (inactive)

Inquiry: Form field: reported GI50 of `Cc1ccc(OCCn2cc(Nc3ccccc3)c(=O)[nH]c2=O)cc1`
Reply text: > 100 µM (inactive)

Inquiry: Form field: reported GI50 of CCOC(=O)C1(C)CCC(C(=O)OC)C1=O (stereo unspecified)
Reply text: > 100 µM (inactive)

----------
Test system: 786-0
Test: NCI tumour cell line growth inhibition, 48 h
Where a name gives a salt, the structure may show the parent alone. Activity calls are given as the source filed them. Cut-off read from the data, not from the text of the source: active = GI50 up to about 1.1 µM and inactive = higher.
Use one of these outcomes when replying: active, inactive

Inquiry: Called result for COc1ccc(/C=C2\CCC(C)C3=C(c4ccc(OC)c(OC)c4)C(C#N)=C(N)OC32)cc1OC (centres undefined)
Reply text: inactive

Inquiry: Called result for `COC(=O)[C@](C)(Cc1ccccc1)NC(=O)[C@@H](C)N1[C@@H](c2ccccc2)COC1(C)C`
Reply text: inactive

Inquiry: Called result for NC(=O)C(N)CC12CC3CC(CC(C3)C1)C2 (centres undefined)
Reply text: inactive

Inquiry: Called result for `CCOC(=O)N/N=C(\CC)OCC`
Reply text: inactive

Inquiry: Called result for `O=C(NC12CC3CC(CC(C3)C1)C2)C(=O)c1c[nH]c2ccccc12`
Reply text: inactive

Inquiry: Called result for `COc1ccc2c3c([nH]c2c1)[C@H](C=C(C)C)N1C(=O)[C@@H]2CCCN2C(=O)[C@@H]1C3`
Reply text: inactive

Inquiry: Called result for `COc1ccccc1/C=C1\Sc2scc(-c3cccc([N+](=O)[O-])c3)[n+]2C1=O`
Reply text: inactive

Inquiry: Called result for `Cc1cc(N(CCOS(C)(=O)=O)CCOS(C)(=O)=O)ccc1/C=N/c1ccc(-c2csc(-c3ccccc3)n2)c(Cl)c1`
Reply text: inactive

Inquiry: Called result for C=C1CC(COc2ccc3ccc(=O)oc3c2)(c2ccccc2)OC1=O (centres undefined)
Reply text: inactive

Inquiry: Called result for `Cc1cc2c(C)n(Cc3ccc(Cl)cc3Cl)nc2c(C(=O)O)c1C`
Reply text: inactive

Inquiry: Called result for NCCSSCCN [CYSTAMINE HYDROCHLORIDE]
Reply text: inactive

Inquiry: Called result for `O=C(Nc1ccc(Sc2ccc(/N=N/c3c(O)c(S(=O)(=O)O)cc4cc(S(=O)(=O)O)ccc34)cc2)cc1)c1ccc(/N=N/c2c(O)ccc3c(S(=O)(=O)O)cc(S(=O)(=O)O)cc23)cc1`
Reply text: inactive

Inquiry: Called result for `NC(=O)c1c2c(n3ccccc13)C(=O)c1ccccc1C2=O`
Reply text: inactive

Inquiry: Called result for `CCOC(=O)c1c(CN2CCNCC2)nc2ccccc2c1-c1ccccc1`
Reply text: inactive

Inquiry: Called result for `COC(=O)CCCCCOS(=O)(=O)c1ccc(C)cc1`
Reply text: inactive

Inquiry: Called result for `O=C(c1cc(Cl)cc(Cl)c1)N(C(=S)OC12CC3CC(CC(C3)C1)C2)c1ccccc1`
Reply text: inactive

Inquiry: Called result for `C/C(=N\NC(=[Se])N1CCN(c2ccccn2)CC1)c1ccccn1`
Reply text: active

Inquiry: Called result for C=C(C)C1CC2C(C)=C(OC(C)=O)C1n1c(=O)c3cc4ccccc4cc3c(=O)n12 (centres undefined)
Reply text: inactive

Inquiry: Called result for `O=C(/C=C\c1cccc2ccccc12)c1ccc(Br)cc1`
Reply text: inactive

Inquiry: Called result for `CCCCc1ccc(-n2c(C)c(COC(=O)NC)c(COC(=O)NC)c2C)cc1`
Reply text: inactive

Inquiry: Called result for `Nc1ccc2c(SCC(=O)Nc3ccccc3-c3ccccc3NC(=O)CSc3c4ccccc4nc4cc(N)ccc34)c3ccccc3nc2c1`
Reply text: inactive

Inquiry: Called result for `O=C(O)c1nc2ccc(C(F)(F)F)cc2nc1NCc1ccc(Cl)c(Cl)c1`
Reply text: inactive

Inquiry: Called result for C/C=C1\CCC2c3[nH]c4ccccc4c3CCN2C1 (centres undefined)
Reply text: inactive

Inquiry: Called result for `CC(=O)NC(NCCN)(c1ccccc1)c1ccccc1`
Reply text: inactive

Inquiry: Called result for COC(O)C12OC3CO[Si](C(C)C)(C(C)C)O[Si](C(C)C)(C(C)C)OC3C1Oc1nc(=O)ccn12 (centres undefined)
Reply text: inactive

Inquiry: Called result for CC(=O)NC(CCCNC(=O)N(CCCl)N=O)C(=O)NCc1ccccc1 (centres undefined)
Reply text: inactive

Inquiry: Called result for Cc1ccc([N+](=O)[O-])cc1S(=O)(=O)Nc1ccc(C2=NOC(c3ccccc3O)C2)cc1 (centres undefined)
Reply text: inactive

Inquiry: Called result for CNC(=O)CCC(NC(C)=O)C(=O)NC(Cc1ccc(NC(=O)CCCCC(C)=O)cc1)C(=O)NC(CCC(=O)NC)C(=O)NC (centres undefined)
Reply text: inactive

Inquiry: Called result for `CCOC(=O)C(=O)CC(=O)C1=C(c2ccccc2OC)CC(c2cccs2)=CC1=O`
Reply text: inactive

Cited source for all entries: ChEMBL document CHEMBL1201862
